target: MLNR (Homo sapiens, UniProt O43193); construct: purchased Promega (in-house HiBiT-GPCR construct library, NanoBRET); experiment: NanoBRET screen HiBiT-MLNR in HEK293; assay type: binding; settings: MLNR; tracer 1μM
Sequence (O43193 whole entry): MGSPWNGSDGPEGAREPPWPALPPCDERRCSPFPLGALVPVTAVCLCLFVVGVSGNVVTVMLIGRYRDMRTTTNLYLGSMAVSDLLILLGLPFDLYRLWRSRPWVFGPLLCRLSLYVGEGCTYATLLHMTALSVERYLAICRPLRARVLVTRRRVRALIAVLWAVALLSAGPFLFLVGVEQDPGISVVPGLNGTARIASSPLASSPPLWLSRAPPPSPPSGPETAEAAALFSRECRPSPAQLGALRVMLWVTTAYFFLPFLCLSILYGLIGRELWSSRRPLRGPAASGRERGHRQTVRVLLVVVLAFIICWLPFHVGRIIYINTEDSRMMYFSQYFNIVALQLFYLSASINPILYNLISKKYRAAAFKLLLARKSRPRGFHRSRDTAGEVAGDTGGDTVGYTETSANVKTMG
Exam item: assign 1 to entries whose NanoBRET Fold Response is below 1 and 0 to entries at or above 1. Note that a value of exactly 1 receives 0.

{"columns": ["compound", "class_assignment"],
 "data": [
  ["O=C(CCc1ccc2n1[B-](F)(F)[N+]1=C(c3ccc[nH]3)C=CC1=C2)NCCOCCOCCNC(=O)OCCOCCN1CCN(C2=Nc3ccccc3Sc3ccccc32)CC1 [Quetiapine-a-2-NB590]", 1],
  ["O=C(CCOCCOCCOCCOCCNC(=O)CCc1ccc2n1[B-](F)(F)[N+]1=C(c3ccc[nH]3)C=CC1=C2)NCCCN1CCN(C2=Nc3ccccc3Oc3ccc(Cl)cc32)CC1 [Loxapine-a-2-NB590]", 0],
  ["CC(C)N(CC[C@H](c1ccccc1)c1cc(CCNC(=O)CCOCCOCCOCCOCCNC(=O)CCc2ccc3n2[B-](F)(F)[N+]2=C(c4ccc[nH]4)C=CC2=C3)ccc1O)C(C)C [Tolterodine-2-NB590]", 0],
  ["COc1ccccc1N1CCN(CCCCN2C(=O)c3ccc(CNC(=O)CCOCCNC(=O)c4ccc(CNC(=O)CCc5ccc6n5[B-](F)(F)[N+]5=C(c7ccc[nH]7)C=CC5=C6)cc4)cc3C2=O)CC1 [NAN-190-3-NB590]", 1],
  ["Cc1nc2n(c(=O)c1CCN1CCC(c3noc4cc(F)ccc34)CC1)CCCC2OC(=O)NCCOCCOCCOCCOCCNC(=O)CCc1ccc2n1[B-](F)(F)[N+]1=C(c3ccc[nH]3)C=CC1=C2 (centres unmarked) [Risperidone-2-NB590]", 1]
]}

---

molecular target: NPSR1 (Homo sapiens); construct: purchased Promega (in-house HiBiT-GPCR construct library, NanoBRET); assay: NanoBRET screen HiBiT-NPSR1 in HEK293; type: binding; details: NPSR1; tracer 0.1μM
Sequence (Q6W5P4 whole entry): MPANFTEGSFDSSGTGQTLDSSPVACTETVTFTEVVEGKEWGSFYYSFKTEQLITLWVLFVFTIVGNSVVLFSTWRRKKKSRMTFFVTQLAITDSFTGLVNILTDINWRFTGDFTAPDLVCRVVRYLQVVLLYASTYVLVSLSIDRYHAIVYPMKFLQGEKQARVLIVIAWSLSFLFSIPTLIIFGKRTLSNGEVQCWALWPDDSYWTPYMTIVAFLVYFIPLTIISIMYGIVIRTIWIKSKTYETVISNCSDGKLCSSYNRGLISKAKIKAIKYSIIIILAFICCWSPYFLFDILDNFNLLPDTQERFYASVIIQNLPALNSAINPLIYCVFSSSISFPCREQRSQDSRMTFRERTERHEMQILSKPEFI

{"columns": ["compound", "NanoBRET Fold Response"],
 "data": [
  ["N#CN=C(NCCCOc1cccc(CN2CCCCC2)c1)NCCNC(=O)CCOCCOCCOCCOCCNC(=O)CCc1ccc2n1[B-](F)(F)[N+]1=C(c3ccc[nH]3)C=CC1=C2", 0.99],
  ["COc1ccccc1N1CCN(CCCCN2C(=O)c3ccc(CNC(=O)CCOCCOCCOCCOCCNC(=O)CCc4ccc5n4[B-](F)(F)[N+]4=C(c6ccc[nH]6)C=CC4=C5)cc3C2=O)CC1", 0.90],
  ["CC(C)N(CC[C@H](c1ccccc1)c1cc(CCNC(=O)c2ccc(CNC(=O)CCc3ccc4n3[B-](F)(F)[N+]3=C(c5ccc[nH]5)C=CC3=C4)cc2)ccc1O)C(C)C", 1.12],
  ["Cc1nc2n(c(=O)c1CCN1CCC(c3noc4cc(F)ccc34)CC1)CCCC2OC(=O)NCCOCCOCCOCCOCCNC(=O)CCc1ccc2n1[B-](F)(F)[N+]1=C(c3ccc[nH]3)C=CC1=C2 (centres unmarked)", 1.00],
  ["O=C(CCc1ccc2n1[B-](F)(F)[N+]1=C(c3ccc[nH]3)C=CC1=C2)NCc1ccc(C(=O)NCCOCCC(=O)N[C@@H]2CC[C@@]3(O)[C@H]4Cc5ccc(O)c6c5[C@@]3(CCN4CC3CC3)[C@H]2O6)cc1 [Naltrexone-3-NB590]", 1.12]
]}

---

target: FZD7 (Homo sapiens, UniProt O75084); construct: purchased Promega (in-house HiBiT-GPCR construct library, NanoBRET); experiment: NanoBRET screen HiBiT-FZD7 in HEK293; format: binding; conditions: FZD7; tracer 0.1μM

{"columns": ["line_notation", "NanoBRET Fold Response"],
 "data": [
  ["CC(C)N(CC[C@H](c1ccccc1)c1cc(CCNC(=O)CCOCCOCCOCCOCCNC(=O)CCc2ccc3n2[B-](F)(F)[N+]2=C(c4ccc[nH]4)C=CC2=C3)ccc1O)C(C)C", 1.00],
  ["COc1ccccc1N1CCN(CCCCN2C(=O)c3ccc(CNC(=O)CCOCCNC(=O)c4ccc(CNC(=O)CCc5ccc6n5[B-](F)(F)[N+]5=C(c7ccc[nH]7)C=CC5=C6)cc4)cc3C2=O)CC1", 0.94],
  ["Cc1cc2c(s1)Nc1ccccc1N=C2N1CCN(CCCNC(=O)CCOCCOCCOCCOCCNC(=O)CCc2ccc3n2[B-](F)(F)[N+]2=C(c4ccc[nH]4)C=CC2=C3)CC1", 1.03],
  ["CC(C)N(CC[C@H](c1ccccc1)c1cc(CCNC(=O)c2ccc(CNC(=O)CCc3ccc4n3[B-](F)(F)[N+]3=C(c5ccc[nH]5)C=CC3=C4)cc2)ccc1O)C(C)C", 1.04],
  ["O=C(CCOCCOCCOCCOCCNC(=O)CCc1ccc2n1[B-](F)(F)[N+]1=C(c3ccc[nH]3)C=CC1=C2)NCCCN1CCN(C2=Nc3ccccc3Oc3ccc(Cl)cc32)CC1", 1.03],
  ["N#CN=C(NCCCOc1cccc(CN2CCCCC2)c1)NCCNC(=O)CCOCCOCCOCCOCCNC(=O)CCc1ccc2n1[B-](F)(F)[N+]1=C(c3ccc[nH]3)C=CC1=C2", 0.94]
]}

---

target: CXCR1 (Homo sapiens); construct: purchased Promega (in-house HiBiT-GPCR construct library, NanoBRET); assay: NanoBRET screen HiBiT-CXCR1 in HEK293; type: binding; conditions: CXCR1; tracer 1μM
Sequence (P25024 whole entry): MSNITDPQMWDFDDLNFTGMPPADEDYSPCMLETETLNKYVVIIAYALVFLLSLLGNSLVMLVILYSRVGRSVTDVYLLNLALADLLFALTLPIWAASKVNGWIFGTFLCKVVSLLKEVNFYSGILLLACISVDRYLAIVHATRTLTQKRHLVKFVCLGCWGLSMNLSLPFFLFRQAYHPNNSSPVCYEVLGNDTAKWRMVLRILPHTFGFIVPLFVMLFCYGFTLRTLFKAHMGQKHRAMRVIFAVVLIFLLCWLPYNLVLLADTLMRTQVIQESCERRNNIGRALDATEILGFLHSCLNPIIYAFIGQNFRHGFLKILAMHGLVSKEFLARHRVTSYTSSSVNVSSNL

{"columns": ["compound", "NanoBRET Fold Response"],
 "data": [
  ["O=C(CCc1ccc2n1[B-](F)(F)[N+]1=C(c3ccc[nH]3)C=CC1=C2)NCc1ccc(C(=O)NCCOCCC(=O)N[C@@H]2CC[C@@]3(O)[C@H]4Cc5ccc(O)c6c5[C@@]3(CCN4CC3CC3)[C@H]2O6)cc1 [Naltrexone-3-NB590]", 0.75],
  ["COc1ccccc1N1CCN(CCCCN2C(=O)c3ccc(CNC(=O)CCOCCNC(=O)c4ccc(CNC(=O)CCc5ccc6n5[B-](F)(F)[N+]5=C(c7ccc[nH]7)C=CC5=C6)cc4)cc3C2=O)CC1", 0.83],
  ["O=C(CCc1ccc2n1[B-](F)(F)[N+]1=C(c3ccc[nH]3)C=CC1=C2)NCCOCCOCCNC(=O)OCCOCCN1CCN(C2=Nc3ccccc3Sc3ccccc32)CC1", 0.95],
  ["COc1ccccc1N1CCN(CCCCN2C(=O)c3ccc(CNC(=O)CCOCCOCCOCCOCCNC(=O)CCc4ccc5n4[B-](F)(F)[N+]4=C(c6ccc[nH]6)C=CC4=C5)cc3C2=O)CC1", 1.05],
  ["CC(C)N(CC[C@H](c1ccccc1)c1cc(CCNC(=O)CCOCCOCCOCCOCCNC(=O)CCc2ccc3n2[B-](F)(F)[N+]2=C(c4ccc[nH]4)C=CC2=C3)ccc1O)C(C)C", 1.06]
]}

---

molecular target: GRM8 (Homo sapiens); construct: purchased Promega (in-house HiBiT-GPCR construct library, NanoBRET); experiment: NanoBRET screen HiBiT-GRM8 in HEK293; assay type: binding; conditions: GRM8; tracer 1μM
Sequence (O00222 34-908): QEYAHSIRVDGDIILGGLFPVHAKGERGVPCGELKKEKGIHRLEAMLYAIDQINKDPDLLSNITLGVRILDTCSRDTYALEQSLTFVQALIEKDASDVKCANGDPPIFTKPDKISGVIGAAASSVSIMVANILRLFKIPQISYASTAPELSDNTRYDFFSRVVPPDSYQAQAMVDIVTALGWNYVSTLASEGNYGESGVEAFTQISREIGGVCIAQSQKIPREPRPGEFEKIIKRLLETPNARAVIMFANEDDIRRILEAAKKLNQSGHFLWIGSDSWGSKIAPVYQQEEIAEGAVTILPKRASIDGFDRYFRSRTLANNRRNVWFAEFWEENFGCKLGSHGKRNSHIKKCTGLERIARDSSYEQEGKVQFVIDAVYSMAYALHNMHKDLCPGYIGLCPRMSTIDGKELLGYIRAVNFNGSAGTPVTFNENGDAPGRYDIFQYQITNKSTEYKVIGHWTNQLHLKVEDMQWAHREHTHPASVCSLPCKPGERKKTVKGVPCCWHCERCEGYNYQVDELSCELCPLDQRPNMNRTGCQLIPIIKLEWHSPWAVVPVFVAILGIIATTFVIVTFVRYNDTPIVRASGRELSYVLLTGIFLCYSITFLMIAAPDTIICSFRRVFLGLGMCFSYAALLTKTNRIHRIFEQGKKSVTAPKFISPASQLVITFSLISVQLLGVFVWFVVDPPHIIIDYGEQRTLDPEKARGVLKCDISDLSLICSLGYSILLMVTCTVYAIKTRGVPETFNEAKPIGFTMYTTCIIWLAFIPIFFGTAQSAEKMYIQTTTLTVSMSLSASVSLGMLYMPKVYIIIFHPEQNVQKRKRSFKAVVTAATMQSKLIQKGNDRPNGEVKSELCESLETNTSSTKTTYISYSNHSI

{"columns": ["compound", "NanoBRET Fold Response"],
 "data": [
  ["Cc1cc2c(s1)Nc1ccccc1N=C2N1CCN(CCCNC(=O)CCOCCOCCOCCOCCNC(=O)CCc2ccc3n2[B-](F)(F)[N+]2=C(c4ccc[nH]4)C=CC2=C3)CC1 [Olanzapine-a-2-NB590]", 1.04],
  ["Cc1nc2n(c(=O)c1CCN1CCC(c3noc4cc(F)ccc34)CC1)CCCC2OC(=O)NCCOCCOCCOCCOCCNC(=O)CCc1ccc2n1[B-](F)(F)[N+]1=C(c3ccc[nH]3)C=CC1=C2 (centres unmarked) [Risperidone-2-NB590]", 1.04],
  ["CCCn1c(=O)c2[nH]c(-c3ccc(OCC(=O)NCCNC(=O)CCOCCNC(=O)c4ccc(CNC(=O)CCc5ccc6n5[B-](F)(F)[N+]5=C(c7ccc[nH]7)C=CC5=C6)cc4)cc3)nc2n(CCC)c1=O [XAC-3-NB590]", 1.04],
  ["CC(C)N(CC[C@H](c1ccccc1)c1cc(CCNC(=O)c2ccc(CNC(=O)CCc3ccc4n3[B-](F)(F)[N+]3=C(c5ccc[nH]5)C=CC3=C4)cc2)ccc1O)C(C)C [Tolterodine-BZ-NB590]", 1.03],
  ["N#CN=C(NCCCOc1cccc(CN2CCCCC2)c1)NCCNC(=O)CCOCCOCCOCCOCCNC(=O)CCc1ccc2n1[B-](F)(F)[N+]1=C(c3ccc[nH]3)C=CC1=C2 [Aminopotentidine-2-NB590]", 0.99]
]}

---

target: GRM1 (Homo sapiens, UniProt Q13255); construct: purchased Promega (in-house HiBiT-GPCR construct library, NanoBRET); experiment: NanoBRET screen HiBiT-GRM1 in HEK293; assay type: binding; conditions: GRM1; tracer 1μM
Sequence (Q13255 19-1194): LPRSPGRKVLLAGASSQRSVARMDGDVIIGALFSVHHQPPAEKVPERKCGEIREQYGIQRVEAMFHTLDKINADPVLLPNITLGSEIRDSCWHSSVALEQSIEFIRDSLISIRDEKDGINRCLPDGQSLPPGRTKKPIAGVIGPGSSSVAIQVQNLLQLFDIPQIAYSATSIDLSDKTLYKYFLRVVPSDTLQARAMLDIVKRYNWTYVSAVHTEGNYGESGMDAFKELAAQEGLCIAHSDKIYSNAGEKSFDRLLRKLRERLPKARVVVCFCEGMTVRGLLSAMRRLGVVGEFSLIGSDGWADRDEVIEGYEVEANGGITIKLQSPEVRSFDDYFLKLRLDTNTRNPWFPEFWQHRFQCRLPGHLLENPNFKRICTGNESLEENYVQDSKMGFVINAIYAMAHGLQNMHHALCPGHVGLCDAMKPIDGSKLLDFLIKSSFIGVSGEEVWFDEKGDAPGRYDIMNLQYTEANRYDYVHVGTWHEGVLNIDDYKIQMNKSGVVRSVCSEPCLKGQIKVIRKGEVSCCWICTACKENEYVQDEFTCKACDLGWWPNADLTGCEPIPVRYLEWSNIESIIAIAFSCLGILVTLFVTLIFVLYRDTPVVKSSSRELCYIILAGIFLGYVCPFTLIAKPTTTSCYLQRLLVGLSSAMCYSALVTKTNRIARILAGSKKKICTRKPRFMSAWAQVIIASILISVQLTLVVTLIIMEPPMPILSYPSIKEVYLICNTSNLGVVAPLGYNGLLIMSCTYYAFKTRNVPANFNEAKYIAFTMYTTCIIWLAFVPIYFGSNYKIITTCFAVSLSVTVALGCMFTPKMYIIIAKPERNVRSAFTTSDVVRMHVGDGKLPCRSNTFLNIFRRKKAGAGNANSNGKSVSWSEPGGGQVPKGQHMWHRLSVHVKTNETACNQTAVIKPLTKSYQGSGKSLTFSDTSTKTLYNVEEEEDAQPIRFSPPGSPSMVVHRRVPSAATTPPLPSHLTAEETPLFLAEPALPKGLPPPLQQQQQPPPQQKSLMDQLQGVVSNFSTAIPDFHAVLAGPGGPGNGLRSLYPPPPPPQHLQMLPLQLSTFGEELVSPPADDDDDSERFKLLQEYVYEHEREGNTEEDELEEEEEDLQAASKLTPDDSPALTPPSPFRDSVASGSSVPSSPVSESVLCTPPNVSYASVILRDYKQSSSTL
Assign labels as follows, please: True for NanoBRET Fold Response below 0.8; False for NanoBRET Fold Response equal to or exceeding 0.8.

{"columns": ["compound", "tested_system", "class_assignment"],
 "data": [
  ["O=C(CCc1ccc2n1[B-](F)(F)[N+]1=C(c3ccc[nH]3)C=CC1=C2)NCCOCCOCCNC(=O)OCCOCCN1CCN(C2=Nc3ccccc3Sc3ccccc32)CC1 [Quetiapine-a-2-NB590]", "GRM1 (Homo sapiens, UniProt Q13255)", "False"],
  ["O=C(CCc1ccc2n1[B-](F)(F)[N+]1=C(c3ccc[nH]3)C=CC1=C2)NCc1ccc(C(=O)NCCOCCC(=O)N[C@@H]2CC[C@@]3(O)[C@H]4Cc5ccc(O)c6c5[C@@]3(CCN4CC3CC3)[C@H]2O6)cc1 [Naltrexone-3-NB590]", "GRM1 (Homo sapiens, UniProt Q13255)", "True"],
  ["COc1ccccc1N1CCN(CCCCN2C(=O)c3ccc(CNC(=O)CCOCCOCCOCCOCCNC(=O)CCc4ccc5n4[B-](F)(F)[N+]4=C(c6ccc[nH]6)C=CC4=C5)cc3C2=O)CC1 [NAN-190-2-NB590]", "GRM1 (Homo sapiens, UniProt Q13255)", "False"],
  ["CC(C)N(CC[C@H](c1ccccc1)c1cc(CCNC(=O)c2ccc(CNC(=O)CCc3ccc4n3[B-](F)(F)[N+]3=C(c5ccc[nH]5)C=CC3=C4)cc2)ccc1O)C(C)C [Tolterodine-BZ-NB590]", "GRM1 (Homo sapiens, UniProt Q13255)", "True"],
  ["Cc1cc2c(s1)Nc1ccccc1N=C2N1CCN(CCCNC(=O)CCOCCOCCOCCOCCNC(=O)CCc2ccc3n2[B-](F)(F)[N+]2=C(c4ccc[nH]4)C=CC2=C3)CC1 [Olanzapine-a-2-NB590]", "GRM1 (Homo sapiens, UniProt Q13255)", "False"],
  ["COc1ccccc1N1CCN(CCCCN2C(=O)c3ccc(CNC(=O)CCOCCNC(=O)c4ccc(CNC(=O)CCc5ccc6n5[B-](F)(F)[N+]5=C(c7ccc[nH]7)C=CC5=C6)cc4)cc3C2=O)CC1 [NAN-190-3-NB590]", "GRM1 (Homo sapiens, UniProt Q13255)", "False"],
  ["N#CN=C(NCCCOc1cccc(CN2CCCCC2)c1)NCCNC(=O)CCOCCOCCOCCOCCNC(=O)CCc1ccc2n1[B-](F)(F)[N+]1=C(c3ccc[nH]3)C=CC1=C2 [Aminopotentidine-2-NB590]", "GRM1 (Homo sapiens, UniProt Q13255)", "False"],
  ["O=C(CCOCCOCCOCCOCCNC(=O)CCc1ccc2n1[B-](F)(F)[N+]1=C(c3ccc[nH]3)C=CC1=C2)NCCCN1CCN(C2=Nc3ccccc3Oc3ccc(Cl)cc32)CC1 [Loxapine-a-2-NB590]", "GRM1 (Homo sapiens, UniProt Q13255)", "True"],
  ["CN(C)CCC=C1c2ccccc2CCc2ccc(C(=O)NCCNC(=O)CCOCCOCCOCCOCCNC(=O)CCc3ccc4n3[B-](F)(F)[N+]3=C(c5ccc[nH]5)C=CC3=C4)cc21 [Amitriptyline-b-2-NB590]", "GRM1 (Homo sapiens, UniProt Q13255)", "False"],
  ["Cc1nc2n(c(=O)c1CCN1CCC(c3noc4cc(F)ccc34)CC1)CCCC2OC(=O)NCCOCCOCCOCCOCCNC(=O)CCc1ccc2n1[B-](F)(F)[N+]1=C(c3ccc[nH]3)C=CC1=C2 (stereo not drawn) [Risperidone-2-NB590]", "GRM1 (Homo sapiens, UniProt Q13255)", "False"]
]}
